Values compiled from patent EP3426634B1.

molecular target: hMAO-B (Homo sapiens, UniProt P27338); construct: purchased Sigma Aldrich M7441; host or cells: baculovirus infected insect cells (BTI-TN-5B1-4); assay: Inhibition assay using human recombinant MAO-B (fluorimetric Amplex Red assay); format: biochemical; details: 1 mM p-tyramine, 15 min pre-incubation at 37 °C, pH 7.4, Amplex Red/horseradish peroxidase, read-out: hMAO-B IC50 [nM] ±SEM
Sequence (P27338 whole entry): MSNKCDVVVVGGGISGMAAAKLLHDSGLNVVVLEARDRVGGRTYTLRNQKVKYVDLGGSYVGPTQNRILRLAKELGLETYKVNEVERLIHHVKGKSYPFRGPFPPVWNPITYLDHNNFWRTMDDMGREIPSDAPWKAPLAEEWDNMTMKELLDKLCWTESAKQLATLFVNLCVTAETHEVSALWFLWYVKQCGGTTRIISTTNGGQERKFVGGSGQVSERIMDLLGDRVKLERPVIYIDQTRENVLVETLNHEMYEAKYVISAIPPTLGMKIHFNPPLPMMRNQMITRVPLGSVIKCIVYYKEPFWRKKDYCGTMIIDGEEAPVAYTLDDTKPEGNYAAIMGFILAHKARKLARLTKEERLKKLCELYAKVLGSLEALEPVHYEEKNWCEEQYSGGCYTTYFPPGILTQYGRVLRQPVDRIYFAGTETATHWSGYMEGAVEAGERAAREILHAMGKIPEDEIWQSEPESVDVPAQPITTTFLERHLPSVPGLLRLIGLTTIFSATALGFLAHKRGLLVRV
measurement_label: IC50 (nM)

Recorded results for 2 molecules are shown here.
molecule="C#CCCN1CCC(/C=C/c2ccc(F)cc2)CC1 [drawing 173]" experimental_target="hMAO-B (Homo sapiens, UniProt P27338)" measurement_label=IC50 measurement=475
molecule="C#CCN1CCCC(CCc2ccc(F)cc2)CC1 (stereo not drawn)" experimental_target="hMAO-B (Homo sapiens, UniProt P27338)" measurement_label=IC50 measurement=250

[a] C#CCN1CCC(CCc2ccc(Br)cc2)CC1
[b] C#CCN1CCC(/C=C/c2ccccn2)CC1
// query Could you tell me which of these two has the smaller IC50 figure? First: a Second: b Choose, then provide that item's label.
// result b
(b: 730 nM, a: 1440 nM)

[1] C#CCCN1CCC(CCc2ccc(F)cc2)CC1
[2] C#CCN1CCC(=Cc2ccc(F)cc2)CC1
// query Could you tell me which of these two has the smaller IC50 figure? First: 1 Second: 2 Choose, then provide that item's label.
// result 1

[I] C#CCN1CCC(/C=C/c2ccc(F)cc2)C1 (stereo not drawn)
[II] C#CCCCN1CCC(/C=C/c2ccc(F)cc2)CC1 [drawing 177]
[III] C#CCN1CCCC(Cc2ccc(F)cc2)CC1 (stereo not drawn) [drawing 183]
// query Rank descending by IC50. Please respond by ranking the labels in the order requested.
// result I, II, III
(I: 17400 nM, II: 163 nM, III: 59.2 nM)
